Target: integrin αvβ3 (human (endogenous in U87MG), UniProt P06756 31-1048; P05106 27-788)
Sequence (P06756 31-1048, chain 1 of 2): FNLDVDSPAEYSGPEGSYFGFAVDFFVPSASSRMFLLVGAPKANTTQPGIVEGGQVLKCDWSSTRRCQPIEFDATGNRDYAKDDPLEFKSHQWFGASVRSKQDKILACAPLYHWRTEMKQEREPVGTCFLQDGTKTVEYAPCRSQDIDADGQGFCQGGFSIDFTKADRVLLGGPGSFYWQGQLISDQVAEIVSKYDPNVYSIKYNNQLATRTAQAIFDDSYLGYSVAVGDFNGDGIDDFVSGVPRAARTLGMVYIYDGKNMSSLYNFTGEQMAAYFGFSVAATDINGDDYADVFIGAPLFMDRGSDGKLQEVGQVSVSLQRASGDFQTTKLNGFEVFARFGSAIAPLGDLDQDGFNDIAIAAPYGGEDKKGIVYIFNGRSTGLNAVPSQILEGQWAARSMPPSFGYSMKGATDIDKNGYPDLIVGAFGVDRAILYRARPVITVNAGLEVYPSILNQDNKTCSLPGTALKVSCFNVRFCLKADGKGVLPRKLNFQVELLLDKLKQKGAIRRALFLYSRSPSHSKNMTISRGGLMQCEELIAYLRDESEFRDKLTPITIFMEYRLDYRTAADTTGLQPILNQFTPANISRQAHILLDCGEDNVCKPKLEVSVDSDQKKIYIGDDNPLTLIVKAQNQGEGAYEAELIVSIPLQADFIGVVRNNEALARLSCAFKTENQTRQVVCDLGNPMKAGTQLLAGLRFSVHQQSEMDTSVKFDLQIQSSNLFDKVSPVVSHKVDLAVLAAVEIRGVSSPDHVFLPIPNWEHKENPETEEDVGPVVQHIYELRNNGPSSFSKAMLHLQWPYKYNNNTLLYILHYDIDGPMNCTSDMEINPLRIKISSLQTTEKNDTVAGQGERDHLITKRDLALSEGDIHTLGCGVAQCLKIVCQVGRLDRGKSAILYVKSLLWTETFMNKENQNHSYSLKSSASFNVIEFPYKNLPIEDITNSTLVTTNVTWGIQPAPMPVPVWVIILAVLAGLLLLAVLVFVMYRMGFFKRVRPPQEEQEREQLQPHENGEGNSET
Sequence (P05106 27-788, chain 2 of 2): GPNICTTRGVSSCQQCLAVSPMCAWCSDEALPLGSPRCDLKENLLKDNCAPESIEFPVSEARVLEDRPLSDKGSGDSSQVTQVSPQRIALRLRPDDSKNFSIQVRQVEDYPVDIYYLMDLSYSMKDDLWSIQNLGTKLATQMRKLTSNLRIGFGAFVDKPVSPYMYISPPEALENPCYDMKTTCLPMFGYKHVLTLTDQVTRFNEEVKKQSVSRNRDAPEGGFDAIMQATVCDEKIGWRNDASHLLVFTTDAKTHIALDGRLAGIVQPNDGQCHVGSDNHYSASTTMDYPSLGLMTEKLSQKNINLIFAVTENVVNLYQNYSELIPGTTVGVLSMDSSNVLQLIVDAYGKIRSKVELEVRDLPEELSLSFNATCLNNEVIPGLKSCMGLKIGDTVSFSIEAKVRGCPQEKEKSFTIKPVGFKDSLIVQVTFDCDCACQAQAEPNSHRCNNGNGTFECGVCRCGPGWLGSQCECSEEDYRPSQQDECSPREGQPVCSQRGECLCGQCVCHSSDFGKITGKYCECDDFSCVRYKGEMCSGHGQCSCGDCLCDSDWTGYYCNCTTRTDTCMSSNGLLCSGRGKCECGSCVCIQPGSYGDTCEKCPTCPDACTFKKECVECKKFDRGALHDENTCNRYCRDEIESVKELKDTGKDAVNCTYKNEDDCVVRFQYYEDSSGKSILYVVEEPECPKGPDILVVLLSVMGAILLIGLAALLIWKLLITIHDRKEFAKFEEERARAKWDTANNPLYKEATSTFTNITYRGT
Experiment: radioligand binding
pIC50: −log10 of the molar value.

{"binder": "cyclo(RGDYK) (not fully specified (residue 4)) [c(RGDyK) peptide]", "pIC50": 6.69}

Every entry's value here was drawn from paper PMC3170926.
